The measured values listed here are drawn from patent US7728028B2.

- TESTED TARGET: human μ-opiate receptor (Homo sapiens, UniProt P35372)
- Construct: purchased PerkinElmer Life Sciences, Zaventem, Belgium RB-HOM; host or cells: CHO-K1 cells (recombinant expression; membrane preparation)
- Sequence (P35372 whole entry): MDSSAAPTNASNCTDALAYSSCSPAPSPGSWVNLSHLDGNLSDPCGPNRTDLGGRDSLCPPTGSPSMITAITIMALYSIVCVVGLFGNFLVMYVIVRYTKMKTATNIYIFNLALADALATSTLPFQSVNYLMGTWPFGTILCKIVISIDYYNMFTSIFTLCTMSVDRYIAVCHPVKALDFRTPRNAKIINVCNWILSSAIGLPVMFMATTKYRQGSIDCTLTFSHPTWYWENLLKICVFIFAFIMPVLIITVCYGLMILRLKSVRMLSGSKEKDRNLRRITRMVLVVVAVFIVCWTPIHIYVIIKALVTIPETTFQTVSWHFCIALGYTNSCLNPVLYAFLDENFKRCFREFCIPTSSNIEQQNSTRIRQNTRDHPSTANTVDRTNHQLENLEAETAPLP
- TEST DESCRIPTION: Affinity for the human μ-opiate receptor ([3H]-naloxone displacement, SPA)
- CONDITION NOTES: Table 2, Examples 11-161; test substance 1 μmole/l; inhibition of specific [3H]-naloxone binding; CHO-K1 membranes; read-out: μ-Opioid receptor, % inhibition [1 μM]
Exercise: for every item that follows, state its recorded inhibition at 1 µM.
One number for each entry, in %.

See these solved cases before continuing.
[[record]]
compound = "CCCN1C=NC(CCC)(C(=O)OC)C1CC1CCC(C(c2cccc(F)c2)N(C)C)CC1 (stereo not shown) [Example 111]"
unit = "%"
numeric_result = 90

[[record]]
compound = "CCCCN1C=NC(CCC)(C(=O)OC)C1CC1CCC(C(c2ccc(F)cc2)N(C)C)CC1 (stereo not shown) [Example 125]"
unit = "%"
numeric_result = 91

[[record]]
compound = "COC(=O)C1(CSCc2ccccc2)N=CN(CCc2ccccc2)C1C1CCC(C(c2ccc(Cl)cc2)N(C)C)CC1 (stereo not shown) [Example 93]"
unit = "%"
numeric_result = 92


From here, focus on the item given below.
What measured inhibition at 1 µM goes with CCCN1C=NC(CC(C)C)(C(=O)OC)C1C1CCC(C(c2ccc(Cl)cc2)N(C)C)CC1 (stereo not shown) [Example 24] ?
89
